Values compiled from ChEMBL document CHEMBL1156769.

Tested on: Coxsackievirus B3
Protocol text: Antiviral activity against Coxsackievirus B3 infected in african green monkey Vero cells assessed as reduction of virus-induced cytopathic effect after 3 days by MTS assay
Format: functional, organism-based
Setup conditions: Enterovirus B, 72 h
Can you tell me EC50 for the items I'm about to list?
Please reply with the bare figure in µM and do not write the unit itself.

Fill in reported EC50 for this entry: OCc1cccc(-n2cnc3c(Cl)ncnc32)c1
14.2

Fill in reported EC50 for this entry: CC(=O)c1cccc(-n2c(C)nc3c(Cl)nc(C)nc32)c1
11

Fill in reported EC50 for this entry: CC(=O)c1cccc(-n2c(C)nc3c(Cl)ncnc32)c1
12.2

Fill in reported EC50 for this entry: CC(=O)c1cccc(-n2cnc3c(Cl)ncnc32)c1
7.3

Fill in reported EC50 for this entry: COc1cccc(Cn2cnc3c(Cl)ncnc32)c1
53

Fill in reported EC50 for this entry: CC(=O)c1cccc(-n2cnc3c(Cl)nc(C)nc32)c1
8.7

Fill in reported EC50 for this entry: OCc1cccc(-n2cnc3c(Br)ncnc32)c1
22

Fill in reported EC50 for this entry: Cc1nc(Cl)c2[nH]c(=O)n(-c3cccc(C(C)(C)O)c3)c2n1
22

Fill in reported EC50 for this entry: CC(C)S(=O)(=O)n1c(N)nc2ccc(/C(=N/O)c3ccccc3)cc21
0.7

Fill in reported EC50 for this entry: COc1cccc(Cn2cnc3ncnc(Cl)c32)c1
75

Fill in reported EC50 for this entry: CC(C)COc1cccc(-n2cnc3c(Cl)ncnc32)c1
29

Fill in reported EC50 for this entry: COC(=O)c1cccc(-n2cnc3c(Cl)ncnc32)c1
11.1

Fill in reported EC50 for this entry: CC(=O)c1cccc(-n2c(=O)[nH]c3c(Cl)nc(C)nc32)c1
6.7

Fill in reported EC50 for this entry: O=C(c1ccccc1)c1ccc(-n2cnc3c(Cl)ncnc32)cc1
67

Fill in reported EC50 for this entry: Fc1cccc(F)c1[C@@H]1SCc2nc3cc(C(F)(F)F)ccc3n21
1.2

Fill in reported EC50 for this entry: Nc1nc(Cl)c2ncn(-c3cccc(CO)c3)c2n1
17

----------
Protocol text: Cytotoxicity against african green monkey Vero cells after 3 days by Cell titer glo luminescent assay
Type: cell-based
Setup conditions: chlorocebus sabaeus
Reported property: CC50 at 72 h

Fill in reported CC50 at 72 h for this entry: Cc1nc(Cl)c2ncn(-c3cccc(C(C)(C)O)c3)c2n1
> 250 µM

Fill in reported CC50 at 72 h for this entry: CC(=O)c1cccc(-n2c(=O)[nH]c3c(Cl)nc(C)nc32)c1
> 250 µM

Fill in reported CC50 at 72 h for this entry: OCc1cccc(-n2cnc3c(Cl)ncnc32)c1
200 µM

Fill in reported CC50 at 72 h for this entry: CC(=O)c1cccc(-n2cnc3c(Cl)ncnc32)c1
> 250 µM

----------
Tested on: Coxsackievirus B3
Protocol text: Antiviral activity against Coxsackievirus B3 infected in african green monkey Vero cells assessed as reduction of virus-induced cytopathic effect after 3 days by MTS assay
Type: functional, organism-based
Setup conditions: Enterovirus B, 72 h
Reported property: EC90 (µM)
Please reply with the bare figure in µM and do not write the unit itself.

Fill in reported EC90 for this entry: CC(=O)c1cccc(-n2c(C)nc3c(Cl)nc(C)nc32)c1
15

Fill in reported EC90 for this entry: COc1cccc(Cn2cnc3c(Cl)ncnc32)c1
70

Fill in reported EC90 for this entry: O=C(c1ccccc1)c1ccc(-n2cnc3c(Cl)ncnc32)cc1
85

Fill in reported EC90 for this entry: COC(=O)c1cccc(-n2cnc3c(Cl)ncnc32)c1
22

Fill in reported EC90 for this entry: OCc1ccc(-n2cnc3c(Cl)ncnc32)cc1
20

Fill in reported EC90 for this entry: CC(=O)c1cccc(-n2c(=O)[nH]c3c(Cl)nc(C)nc32)c1
10

Fill in reported EC90 for this entry: Cc1nc(Cl)c2ncn(-c3cccc(C(C)(C)O)c3)c2n1
7.4

Fill in reported EC90 for this entry: CC(=O)c1cccc(-n2c(=O)[nH]c3c(Cl)ncnc32)c1
18

Fill in reported EC90 for this entry: CC(=O)c1cc(-n2cnc3c(Cl)ncnc32)ccc1F
15

Fill in reported EC90 for this entry: OCc1cccc(-n2cnc3c(Cl)ncnc32)c1
30

Fill in reported EC90 for this entry: OCc1cccc(-n2cnc3c(Br)ncnc32)c1
29
